# Tested on: c-Abl (mouse)
# experiment_notes: phosphorylation enrichment, bacterial display (enrichment ratio); higher = better substrate or ligand; peptides without Tyr show the background
endpoint_name: phosphorylation enrichment
Respond using a number only.

Reference set (3 entries):
[
  {
    "polymer_sequence": "RICRRYCQVLN [IQCF1_Y144_R141C]",
    "phosphorylation enrichment": 0.701
  },
  {
    "polymer_sequence": "YKGKNYKPLDL [RPL35_Y78_K77N]",
    "phosphorylation enrichment": 0.575
  },
  {
    "polymer_sequence": "IPGGIYNADLN [CST4_Y35_D36N]",
    "phosphorylation enrichment": 0.654
  }
]

Query: Recorded phosphorylation enrichment of LSNPAYCLLLA [DDR1_Y513_R514C] , please.
Reply: 0.912

Query: Recorded phosphorylation enrichment of GFCSWYRGWAP [TIMP3_Y195_YF] , please.
Reply: 0.912

Query: Recorded phosphorylation enrichment of TDLAYYLVCKG [ASL_Y376_R379C] , please.
Reply: 0.903

Query: Recorded phosphorylation enrichment of TYGQVYKGRHV [TNIK_Y40] , please.
Reply: 0.711

Query: Recorded phosphorylation enrichment of DLDLTSIFPNI [PTEN_Y27_Y27S_YF] , please.
Reply: 0.677

Query: Recorded phosphorylation enrichment of GARGRYVMGGP [TNK1_Y277] , please.
Reply: 0.376

Query: Recorded phosphorylation enrichment of DDEVFYSPRSL [OTC_Y317] , please.
Reply: 1.22

###

# tested_system: Fes (UniProt P07332)
# Sequence (P07332 whole entry, looked up): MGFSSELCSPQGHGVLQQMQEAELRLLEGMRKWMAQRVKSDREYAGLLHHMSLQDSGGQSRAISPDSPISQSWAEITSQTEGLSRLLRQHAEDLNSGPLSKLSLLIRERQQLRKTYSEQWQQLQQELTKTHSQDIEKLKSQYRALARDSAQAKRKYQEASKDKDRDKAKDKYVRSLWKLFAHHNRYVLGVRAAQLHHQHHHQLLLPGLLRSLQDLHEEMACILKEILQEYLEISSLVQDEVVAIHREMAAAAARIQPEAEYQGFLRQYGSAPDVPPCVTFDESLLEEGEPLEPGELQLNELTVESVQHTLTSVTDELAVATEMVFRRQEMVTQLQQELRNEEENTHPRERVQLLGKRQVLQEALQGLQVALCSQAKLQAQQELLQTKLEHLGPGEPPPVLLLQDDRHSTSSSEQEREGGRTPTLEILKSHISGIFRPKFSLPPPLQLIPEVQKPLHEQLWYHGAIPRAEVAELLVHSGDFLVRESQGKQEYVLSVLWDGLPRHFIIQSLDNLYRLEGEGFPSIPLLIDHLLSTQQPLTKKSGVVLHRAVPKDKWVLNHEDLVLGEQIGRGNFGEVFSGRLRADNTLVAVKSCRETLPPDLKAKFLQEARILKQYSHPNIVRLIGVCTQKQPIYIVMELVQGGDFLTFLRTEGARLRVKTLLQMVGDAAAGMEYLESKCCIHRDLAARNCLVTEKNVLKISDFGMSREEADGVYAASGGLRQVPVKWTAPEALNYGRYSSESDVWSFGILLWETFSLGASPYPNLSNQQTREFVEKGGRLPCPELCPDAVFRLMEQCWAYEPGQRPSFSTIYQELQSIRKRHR
# experiment_notes: phosphorylation enrichment, bacterial display (enrichment ratio); higher = better substrate or ligand; peptides without Tyr show the background
endpoint_name: phosphorylation enrichment
Respond using a number only.

[
  {
    "polymer_sequence": "FSQQTYCRVSN [ABCD1_Y180_Y181C]",
    "phosphorylation enrichment": 0.981
  }
]

Query: Recorded phosphorylation enrichment of KGYCGYSYDDI [TMEM230_Y110_R108C] , please.
Reply: 0.972

Query: Recorded phosphorylation enrichment of QEKKGYFEDRC [GLUL_Y336_R341C] , please.
Reply: 1.29

Query: Recorded phosphorylation enrichment of ILTFKYLQIPM [KIT_Y547_K550I_YF] , please.
Reply: 1.16

Query: Recorded phosphorylation enrichment of SIKDKYVMALF [KCNH2_Y611_T613M_YF] , please.
Reply: 0.888

###

# tested_system: Jak2 (UniProt O60674)
# Sequence (O60674 whole entry, looked up): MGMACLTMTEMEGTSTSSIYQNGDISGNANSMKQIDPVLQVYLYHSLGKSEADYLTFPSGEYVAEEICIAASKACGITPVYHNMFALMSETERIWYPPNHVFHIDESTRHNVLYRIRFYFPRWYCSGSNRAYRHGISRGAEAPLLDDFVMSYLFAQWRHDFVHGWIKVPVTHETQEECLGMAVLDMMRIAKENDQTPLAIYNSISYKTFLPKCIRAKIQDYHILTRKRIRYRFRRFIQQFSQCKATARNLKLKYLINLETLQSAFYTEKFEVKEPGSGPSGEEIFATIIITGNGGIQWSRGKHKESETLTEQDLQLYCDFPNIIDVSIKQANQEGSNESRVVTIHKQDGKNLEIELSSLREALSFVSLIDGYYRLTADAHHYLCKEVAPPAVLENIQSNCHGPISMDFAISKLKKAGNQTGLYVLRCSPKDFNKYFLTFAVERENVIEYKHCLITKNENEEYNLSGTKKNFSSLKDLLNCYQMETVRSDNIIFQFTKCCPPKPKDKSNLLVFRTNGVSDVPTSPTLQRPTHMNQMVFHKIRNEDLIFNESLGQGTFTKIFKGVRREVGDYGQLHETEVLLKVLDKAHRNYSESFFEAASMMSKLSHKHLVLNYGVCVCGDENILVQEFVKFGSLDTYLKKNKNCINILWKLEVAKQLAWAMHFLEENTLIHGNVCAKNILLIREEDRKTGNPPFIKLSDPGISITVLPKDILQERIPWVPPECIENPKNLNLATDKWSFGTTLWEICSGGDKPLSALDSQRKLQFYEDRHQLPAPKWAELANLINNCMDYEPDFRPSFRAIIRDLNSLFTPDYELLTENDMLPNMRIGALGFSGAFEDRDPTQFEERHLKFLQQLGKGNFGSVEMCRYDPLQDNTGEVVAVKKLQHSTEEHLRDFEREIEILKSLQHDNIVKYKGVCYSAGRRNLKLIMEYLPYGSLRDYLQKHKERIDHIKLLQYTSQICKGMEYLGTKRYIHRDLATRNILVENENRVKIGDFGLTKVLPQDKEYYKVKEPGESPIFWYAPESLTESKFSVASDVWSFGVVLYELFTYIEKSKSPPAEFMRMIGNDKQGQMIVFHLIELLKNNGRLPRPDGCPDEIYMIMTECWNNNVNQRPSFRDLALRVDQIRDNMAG
# experiment_notes: phosphorylation enrichment, bacterial display (enrichment ratio); higher = better substrate or ligand; peptides without Tyr show the background
Returns Y if the recorded phosphorylation enrichment is greater than or equal to 0.6, and N otherwise.

Some entries whose results are on file:
[
  {
    "polymer_sequence": "RQNQEYEILMD [KRT39_Y379_L383M]",
    "class": "Y"
  },
  {
    "polymer_sequence": "MSSLYYANALF [HOXB7_Y6_T9A]",
    "class": "Y"
  },
  {
    "polymer_sequence": "SVTCTYPPALN [TP53_Y126_S127P]",
    "class": "Y"
  }
]

Query: Reported phosphorylation enrichment reaches at least 0.6 for LIFTNYEAGKD [GSTP1_Y112_YF] ?
Reply: Y

Query: Reported phosphorylation enrichment reaches at least 0.6 for SVTWTYSPALN [TP53_Y126_C124W] ?
Reply: Y

Query: Reported phosphorylation enrichment reaches at least 0.6 for FTFTSYFMHWV [IGHV1-46_Y51_YF] ?
Reply: Y

Query: Reported phosphorylation enrichment reaches at least 0.6 for SSMIDYKPLEK [MYOC_Y479_N480K] ?
Reply: N

Query: Reported phosphorylation enrichment reaches at least 0.6 for SKNSKCNAEST [PSEN1_Y315_Y315C] ?
Reply: N

Query: Reported phosphorylation enrichment reaches at least 0.6 for VMAALYGRLFE [BTD_Y536_T532M_YF] ?
Reply: Y

###

# tested_system: FGFR3 (UniProt P22607)
# Sequence (P22607 whole entry, looked up): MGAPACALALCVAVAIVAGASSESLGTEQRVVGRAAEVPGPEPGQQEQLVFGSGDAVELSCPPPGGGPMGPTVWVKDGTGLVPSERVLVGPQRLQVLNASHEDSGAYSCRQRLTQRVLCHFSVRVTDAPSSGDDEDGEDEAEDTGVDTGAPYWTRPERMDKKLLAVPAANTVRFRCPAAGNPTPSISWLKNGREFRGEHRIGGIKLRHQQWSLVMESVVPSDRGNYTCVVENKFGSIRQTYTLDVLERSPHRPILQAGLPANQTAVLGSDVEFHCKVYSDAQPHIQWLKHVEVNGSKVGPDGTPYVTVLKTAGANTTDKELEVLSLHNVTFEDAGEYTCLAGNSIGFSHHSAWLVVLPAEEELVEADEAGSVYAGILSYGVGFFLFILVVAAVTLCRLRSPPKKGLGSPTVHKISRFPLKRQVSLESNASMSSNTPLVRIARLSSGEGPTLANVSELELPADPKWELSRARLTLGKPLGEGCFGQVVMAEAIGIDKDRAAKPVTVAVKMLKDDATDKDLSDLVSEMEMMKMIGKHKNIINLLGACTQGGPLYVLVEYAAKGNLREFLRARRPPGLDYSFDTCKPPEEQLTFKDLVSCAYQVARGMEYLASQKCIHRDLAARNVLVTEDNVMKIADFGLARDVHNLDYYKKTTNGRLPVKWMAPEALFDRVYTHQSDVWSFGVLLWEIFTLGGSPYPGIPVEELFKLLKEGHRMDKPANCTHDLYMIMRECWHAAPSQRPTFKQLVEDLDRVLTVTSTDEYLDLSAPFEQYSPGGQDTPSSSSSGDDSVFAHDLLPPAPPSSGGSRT
# experiment_notes: phosphorylation enrichment, bacterial display (enrichment ratio); higher = better substrate or ligand; peptides without Tyr show the background
// map phosphorylation enrichment to label using band 1 (below 0.6), band 2 (0.6 to below 0.9), band 3 (0.9 or more)

Some entries whose results are on file:
[
  {
    "polymer_sequence": "SSQHRYSTPHT [RAF1_Y232_A237T]",
    "class": "band 1"
  },
  {
    "polymer_sequence": "AVLQLYIFVAT [CFTR_Y1014_P1013L]",
    "class": "band 3"
  }
]

Query: Bin? RCKSHYAAFSV [C1QTNF1_Y145]
Reply: band 3

Query: Bin? HQNGMYRLHQD [SGSH_Y89_G90R]
Reply: band 2

Query: Bin? DVQNAYDSNHC [ZFYVE16_Y36]
Reply: band 2

Query: Bin? LDLSYYPTSSS [EMD_Y182]
Reply: band 3

###

# tested_system: EPHB1 (UniProt P54762)
# Sequence (P54762 whole entry, looked up): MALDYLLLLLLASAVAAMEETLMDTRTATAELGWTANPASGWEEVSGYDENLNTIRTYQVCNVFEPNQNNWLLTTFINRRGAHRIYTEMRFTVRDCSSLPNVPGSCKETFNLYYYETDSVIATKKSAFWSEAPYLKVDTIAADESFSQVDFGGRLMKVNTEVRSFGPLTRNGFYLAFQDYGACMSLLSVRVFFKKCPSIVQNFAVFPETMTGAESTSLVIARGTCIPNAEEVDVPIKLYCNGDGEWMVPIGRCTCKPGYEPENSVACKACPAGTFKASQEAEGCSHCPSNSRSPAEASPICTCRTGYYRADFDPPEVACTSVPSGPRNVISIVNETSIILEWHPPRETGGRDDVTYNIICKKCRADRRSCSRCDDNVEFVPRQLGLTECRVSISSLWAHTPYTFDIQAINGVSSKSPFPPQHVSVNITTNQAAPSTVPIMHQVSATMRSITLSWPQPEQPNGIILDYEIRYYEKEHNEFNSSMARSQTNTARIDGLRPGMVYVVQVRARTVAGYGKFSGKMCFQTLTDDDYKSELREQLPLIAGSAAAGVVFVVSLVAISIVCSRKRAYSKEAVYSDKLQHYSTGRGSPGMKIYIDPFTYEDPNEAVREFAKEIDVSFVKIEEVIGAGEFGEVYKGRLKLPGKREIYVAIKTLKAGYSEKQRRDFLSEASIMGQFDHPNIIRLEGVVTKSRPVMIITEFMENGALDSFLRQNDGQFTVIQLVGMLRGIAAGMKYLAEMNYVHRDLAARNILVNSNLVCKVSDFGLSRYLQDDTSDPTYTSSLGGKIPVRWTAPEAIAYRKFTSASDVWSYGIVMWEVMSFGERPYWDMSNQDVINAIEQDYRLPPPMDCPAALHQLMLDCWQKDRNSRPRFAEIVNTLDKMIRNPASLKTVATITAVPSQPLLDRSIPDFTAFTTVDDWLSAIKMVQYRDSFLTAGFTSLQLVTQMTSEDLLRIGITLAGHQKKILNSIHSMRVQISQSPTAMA
# experiment_notes: phosphorylation enrichment, bacterial display (enrichment ratio); higher = better substrate or ligand; peptides without Tyr show the background
List of phosphorylation enrichment values.
Respond using a number only.

Reference set (3 entries):
[
  {
    "polymer_sequence": "SWSTSYSGFRF [NKAPL_Y91_YF]",
    "tested_system": "EPHB1 (UniProt P54762)",
    "phosphorylation enrichment": 0.588
  },
  {
    "polymer_sequence": "KQELVYTNKKL [OPTN_Y356]",
    "tested_system": "EPHB1 (UniProt P54762)",
    "phosphorylation enrichment": 0.496
  },
  {
    "polymer_sequence": "FRAVKYLQMVG [AVPR2_Y117_C112Y_YF]",
    "tested_system": "EPHB1 (UniProt P54762)",
    "phosphorylation enrichment": 0.509
  }
]

Pending sequence:
Query: // map IDGLEYLHSQS [STK11_Y166_G171S] to recorded phosphorylation enrichment (system: EPHB1 (UniProt P54762))
Reply: 0.503

###

# tested_system: Grb2 SH2 (UniProt P62993)
# Sequence (P62993 whole entry, looked up): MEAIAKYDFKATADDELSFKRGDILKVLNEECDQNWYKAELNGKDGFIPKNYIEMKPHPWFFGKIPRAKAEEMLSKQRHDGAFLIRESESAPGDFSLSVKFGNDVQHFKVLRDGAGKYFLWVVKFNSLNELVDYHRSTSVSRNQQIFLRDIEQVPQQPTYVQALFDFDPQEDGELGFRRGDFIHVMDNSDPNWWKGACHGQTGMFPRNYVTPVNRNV
# experiment_notes: SH2 binding enrichment of the phosphorylated peptide, bacterial display (enrichment ratio); higher = better substrate or ligand; peptides without Tyr show the background
// map SH2 binding enrichment to label using low group (below 0.8), middle group (0.8 to below 0.9), high group (0.9 or more)

Some entries whose results are on file:
[
  {
    "polymer_sequence": "EAIAKYDFKAT [GRB2_Y7]",
    "tested_system": "Grb2 SH2 (UniProt P62993)",
    "class": "low group"
  },
  {
    "polymer_sequence": "ISKKRYAGLLF [POLD1_Y809]",
    "tested_system": "Grb2 SH2 (UniProt P62993)",
    "class": "low group"
  }
]

Query: Bin? SQSKGYRPKLY [SIPA1L3_Y1376_G1371S]
Reply: low group

Query: Bin? SIKDKYVTVLF [KCNH2_Y611_A614V_YF]
Reply: high group

###

# Test system: Fer (mouse)
# experiment_notes: phosphorylation enrichment, bacterial display (enrichment ratio); higher = better substrate or ligand; peptides without Tyr show the background
List of phosphorylation enrichment values.
Respond using a number only.

Reference set (2 entries):
[
  {
    "polymer_sequence": "FGVTLYPNSGE [MEP1A_Y472_R476G]",
    "phosphorylation enrichment": 0.54
  },
  {
    "polymer_sequence": "ILNANYMAKRL [GLDC_Y839]",
    "phosphorylation enrichment": 0.458
  }
]

Query: Recorded phosphorylation enrichment of DVQNAYDSNHC [ZFYVE16_Y36] , please.
Reply: 0.555

Query: Recorded phosphorylation enrichment of ERRLIYTSDPK [VPS13D_Y864] , please.
Reply: 0.43

Query: Recorded phosphorylation enrichment of LNCDRYSAGLL [PDE6A_Y275_V277A] , please.
Reply: 0.432

Query: Recorded phosphorylation enrichment of NRNVRYLTLDI [AKR1C2_Y305] , please.
Reply: 0.395

Query: Recorded phosphorylation enrichment of VNYGAYINYFK [GLB1_Y488_D491Y] , please.
Reply: 0.488

Query: Recorded phosphorylation enrichment of CTTIHFNFMCN [TP53_Y234_Y234F_YF] , please.
Reply: 0.569

Query: Recorded phosphorylation enrichment of `GFITSYREEEQ` , please.
Reply: 0.488

Query: Recorded phosphorylation enrichment of EFHRLYEEFTR [PIK3R1_Y467_D464H_YF] , please.
Reply: 3.87

Query: Recorded phosphorylation enrichment of QMQNPYSRHSS [MUC13_Y501] , please.
Reply: 0.648

Query: Recorded phosphorylation enrichment of ADRARYSAFGG [RBM4_Y361] , please.
Reply: 0.424

Query: Recorded phosphorylation enrichment of SRGSSYNSIPK [FLNC_Y2625_S2626N] , please.
Reply: 0.328

Query: Recorded phosphorylation enrichment of IGEGTYGVLFK [CDK2_Y15_V18L_YF] , please.
Reply: 0.673

Query: Recorded phosphorylation enrichment of EERNTYVNTTL [TEK_Y1102_K1100N] , please.
Reply: 0.404

Query: Recorded phosphorylation enrichment of ANNPLYKEATP [ITGB3_Y773_S778P] , please.
Reply: 0.372

Query: Recorded phosphorylation enrichment of PVADRYDQSFE [MAPK14_Y323_P322R] , please.
Reply: 0.518

Query: Recorded phosphorylation enrichment of ARSHIYTLASC [MEFV_Y741_F743L] , please.
Reply: 0.657
